Cited source for all entries: patent US20250313535A1

# assay-system: α4β7 integrin (Homo sapiens (Human), UniProt P13612+P26010)
# Sequence (P13612 34-1032): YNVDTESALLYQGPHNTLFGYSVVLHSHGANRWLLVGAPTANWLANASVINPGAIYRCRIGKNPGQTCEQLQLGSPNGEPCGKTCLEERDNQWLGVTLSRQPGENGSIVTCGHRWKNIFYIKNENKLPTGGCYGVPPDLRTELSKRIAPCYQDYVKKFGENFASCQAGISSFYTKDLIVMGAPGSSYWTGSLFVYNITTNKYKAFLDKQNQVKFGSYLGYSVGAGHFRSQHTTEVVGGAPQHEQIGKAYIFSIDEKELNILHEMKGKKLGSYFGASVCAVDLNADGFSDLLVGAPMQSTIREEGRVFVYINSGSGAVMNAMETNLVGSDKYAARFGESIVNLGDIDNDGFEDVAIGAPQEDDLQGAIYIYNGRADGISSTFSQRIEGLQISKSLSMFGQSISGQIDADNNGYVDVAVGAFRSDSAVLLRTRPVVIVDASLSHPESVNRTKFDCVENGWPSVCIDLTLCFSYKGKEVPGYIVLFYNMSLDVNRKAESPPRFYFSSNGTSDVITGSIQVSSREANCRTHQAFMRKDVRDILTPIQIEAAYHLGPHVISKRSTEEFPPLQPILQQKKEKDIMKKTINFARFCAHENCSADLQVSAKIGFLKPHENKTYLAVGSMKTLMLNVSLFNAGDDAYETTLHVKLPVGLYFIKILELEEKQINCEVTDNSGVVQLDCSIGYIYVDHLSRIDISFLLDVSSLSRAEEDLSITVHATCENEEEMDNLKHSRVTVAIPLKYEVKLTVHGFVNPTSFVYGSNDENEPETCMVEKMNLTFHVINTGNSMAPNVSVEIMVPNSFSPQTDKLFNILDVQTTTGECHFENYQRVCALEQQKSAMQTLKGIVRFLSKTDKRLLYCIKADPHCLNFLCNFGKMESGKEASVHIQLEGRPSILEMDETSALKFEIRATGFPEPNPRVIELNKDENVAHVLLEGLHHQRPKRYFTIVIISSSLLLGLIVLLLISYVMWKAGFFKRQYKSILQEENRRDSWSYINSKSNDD
# Sequence (P26010 20-798): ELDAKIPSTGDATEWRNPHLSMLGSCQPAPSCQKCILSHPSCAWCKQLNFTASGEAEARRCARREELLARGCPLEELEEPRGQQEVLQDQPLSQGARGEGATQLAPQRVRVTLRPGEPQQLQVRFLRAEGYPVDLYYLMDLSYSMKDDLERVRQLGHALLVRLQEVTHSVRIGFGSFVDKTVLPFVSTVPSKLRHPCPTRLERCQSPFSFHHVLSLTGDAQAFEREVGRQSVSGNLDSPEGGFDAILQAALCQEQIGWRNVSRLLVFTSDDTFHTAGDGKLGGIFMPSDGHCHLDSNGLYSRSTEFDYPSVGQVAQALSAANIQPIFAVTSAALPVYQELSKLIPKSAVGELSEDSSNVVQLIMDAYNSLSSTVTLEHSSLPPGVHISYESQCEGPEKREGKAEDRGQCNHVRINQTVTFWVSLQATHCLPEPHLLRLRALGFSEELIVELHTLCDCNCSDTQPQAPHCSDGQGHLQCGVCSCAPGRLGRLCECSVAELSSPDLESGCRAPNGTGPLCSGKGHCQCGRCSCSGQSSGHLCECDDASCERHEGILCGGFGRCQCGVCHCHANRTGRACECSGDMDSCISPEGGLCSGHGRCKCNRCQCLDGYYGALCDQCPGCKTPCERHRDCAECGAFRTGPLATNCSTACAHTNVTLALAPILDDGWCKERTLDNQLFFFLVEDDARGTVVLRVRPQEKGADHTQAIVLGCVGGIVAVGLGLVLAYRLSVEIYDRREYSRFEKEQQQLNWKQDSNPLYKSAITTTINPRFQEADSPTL
# method: Integrin Adhesion Assay: Protocol 4 (MAdCAM-coated plate, RPMI-8866 cells with stable LOF mutation of the ITGB1 gene)
# Format: cell-based
# condition-info: RPMI-8866 cells with stable LOF mutation of the ITGB1 gene; read-out: Mean IC50 α4β7 KO^a
property-name: IC50

These solved cases illustrate the format of a correct answer.
In: Please report the recorded IC50 for Cn1c(=O)c(-c2cccc3c(C[C@H](NC(=O)c4c(F)cc(N5CCC(CO)C5)cc4F)C(=O)O)cccc23)c(C(F)(F)F)c2ccccc21 (some centres unmarked) .
Out: 100 to 1000 nM

In: Which IC50 is reported for this molecule? CC1OCC1N1CCC(C(=O)N[C@@H](Cc2cccc3c(-c4c(C(F)(F)F)c5ccccc5n(C)c4=O)cccc23)C(=O)O)(C(F)(F)F)CC1 (some centres unmarked)
Out: < 10 nM

In: # input molecule: "CC(=O)CN1CCC(C(=O)N[C@@H](Cc2cccc3c(-c4c(C(F)(F)F)c5ccccc5n(C)c4=O)cccc23)C(=O)O)(C(F)(F)F)CC1" ; wanted: its IC50
Out: < 10 nM

Further cases:
In: May I ask what IC50 has been recorded for CN(C)c1ccc2c(c1)c(C(F)(F)F)c(-c1cccc3c(C[C@H](NC(=O)[C@]4(C)CC[C@H](N5CCOC[C@@H]5C(F)(F)F)CC4)C(=O)O)cccc13)c(=O)n2C (single isomer, unassigned) ?
Out: 100 to 1000 nM

In: Entry "Cn1c(=O)c(-c2cccc3c(C[C@H](NC(=O)C45CC(N6CCOCC6)(C4)C5)C(=O)O)cccc23)c(C(F)(F)F)c2ccccc21" : reported IC50 = ?
Out: 100 to 1000 nM

====

# assay-system: α4β7 integrin (Homo sapiens (Human), UniProt P13612+P26010)
# method: Integrin Adhesion Assay: Protocol 4 (MAdCAM-coated plate, RPMI-8866 cells with stable LOF mutation of the ITGB1 gene)
# Type: cell-based
# condition-info: Protocol 4; RPMI-8866 cells with LOF mutation of ITGB1, MAdCAM; read-out: Mean IC50 α4β7 KO
IC50: recorded values

In: Record request: IC50 value, item "COc1cc(CN2CCC(F)(F)CC2)cnc1-c1cccc2c(C[C@H](NC(=O)C3(C(F)(F)F)CCN(CC(F)F)CC3)C(=O)O)cccc12"
Out: < 10 nM

In: Value lookup for IC50; key = "COc1ccc(CCN2CCC(F)(F)CC2)c(C(F)(F)F)c1-c1cccc2c(C[C@H](NC(=O)C3(C(F)(F)F)CCN(CC(F)(F)F)CC3)C(=O)O)cccc12"
Out: 10 to 100 nM

In: Can you share its IC50? I mean this compound: "Cc1cccc(F)c1C(=O)N[C@@H](Cc1cccc2c(-c3c(C(F)(F)F)c4cc(CCN5CCCC5)ccc4n(C)c3=O)cccc12)C(=O)O"
Out: < 10 nM

In: IC50 lookup needed for "COc1ccc(CN2CCC[C@H](F)C2)c(OC)c1-c1cccc2c(C[C@H](NC(=O)C3(C(F)(F)F)CCN(CC(F)(F)F)CC3)C(=O)O)cccc12" , thanks.
Out: < 10 nM

In: Fill in the blank: the reported IC50 of "COc1cc(C(F)(F)F)c(CN2CCCCC2)cc1-c1cccc2c(C[C@H](NC(=O)C3(C(F)(F)F)CCN(CC(F)(F)F)CC3)C(=O)O)cccc12" is ____.
Out: 10 to 100 nM

In: Form field: reported IC50 of "Cc1cc(C2CCN(C)CC2)cnc1-c1cccc2c(C[C@H](NC(=O)C3(C(F)(F)F)CCN(CC(F)(F)F)CC3)C(=O)O)cccc12"
Out: < 10 nM

In: # lookup: IC50 of "O=C(O)[C@H](Cc1cccc2c(-c3ncc(CN4CCC5(CC4)CC5)c4ccccc34)cccc12)NC(=O)C1(C(F)(F)F)CCN(CC(F)F)CC1"
Out: < 10 nM

In: Value lookup for IC50; key = COc1cccc(CN2CCCC(F)C2)c1-c1cccc2c(C[C@H](NC(=O)c3c(C)cccc3F)C(=O)O)cccc12 (stereo partly drawn)
Out: < 10 nM

In: Which measured IC50 value corresponds to Cc1cc(C2CCCN(C)C2)cnc1-c1cccc2c(C[C@H](NC(=O)C3(C(F)(F)F)CCN(CC(F)(F)F)CC3)C(=O)O)cccc12 (stereo partly drawn) ?
Out: < 10 nM
